tested.target: T1, full-length beta-Catenin (Uniprot ID P35222) (Homo sapiens (Human), UniProt P35222 1-781)
T1 construct: The assay text says full-length beta-Catenin (Uniprot ID P35222); also called bCat; B-Catenin
T1 sequence: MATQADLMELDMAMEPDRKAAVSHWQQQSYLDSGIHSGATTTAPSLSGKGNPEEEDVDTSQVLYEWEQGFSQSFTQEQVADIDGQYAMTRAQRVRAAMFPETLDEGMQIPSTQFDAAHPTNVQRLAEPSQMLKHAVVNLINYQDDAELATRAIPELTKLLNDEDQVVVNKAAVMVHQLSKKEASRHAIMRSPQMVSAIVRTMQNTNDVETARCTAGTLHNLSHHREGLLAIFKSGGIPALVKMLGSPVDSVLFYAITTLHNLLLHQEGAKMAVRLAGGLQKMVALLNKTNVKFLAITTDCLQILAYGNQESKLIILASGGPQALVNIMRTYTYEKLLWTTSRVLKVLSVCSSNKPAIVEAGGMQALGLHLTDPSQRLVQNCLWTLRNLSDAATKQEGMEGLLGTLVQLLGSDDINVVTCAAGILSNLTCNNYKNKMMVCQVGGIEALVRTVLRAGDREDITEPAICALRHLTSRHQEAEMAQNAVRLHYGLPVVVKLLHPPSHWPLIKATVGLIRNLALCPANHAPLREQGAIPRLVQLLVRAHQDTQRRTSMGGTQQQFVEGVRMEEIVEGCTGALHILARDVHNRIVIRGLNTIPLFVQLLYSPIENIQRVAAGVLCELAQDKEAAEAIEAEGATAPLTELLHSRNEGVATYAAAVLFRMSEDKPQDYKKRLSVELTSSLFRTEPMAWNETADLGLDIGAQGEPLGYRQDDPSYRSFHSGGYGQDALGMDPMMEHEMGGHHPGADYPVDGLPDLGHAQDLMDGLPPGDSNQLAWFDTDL
test.description: fluorescence polarization competition; full-length beta-catenin with 5FAM-labeled TCF4 (residues 10-53) probe as competitor
Starred links: 1 amine or outer side, 2 acyl side, 3 side chain; linkers in the order of their positions; H or OH if unused. Positions of bridges follow the written chain, without caps; N, C: chain ends. Non-standard residues stand in square brackets, D forms with d. Primed or numbered codes have the meaning given here. B5(23) = 2-amino-2-(pent-4-en-1-yl)hept-6-enoic acid (2,2-bis(4-pentenyl)glycine), stitching residue, C=CCCCC(CCCC=C)(N[*:1])C(=O)[*:2]; B5(9) = 2-amino-2-(pent-4-en-1-yl)hept-6-enoic acid (2,2-bis(4-pentenyl)glycine), C=CCCCC(CCCC=C)(N[*:1])C(=O)[*:2]; 23FF = 2,3-difluoro-L-phenylalanine, O=C([C@H](Cc1cccc(F)c1F)N[*:1])[*:2]; Phe(3-F) = N[C@@H](Cc1cccc(F)c1)C(=O)O; Bta = N[C@@H](Cc1csc2ccccc12)C(=O)O; αAllylPro = C=CC[C@@]1(C(=O)O)CCCN1; S8 = C=CCCCCCC[C@](C)(N)C(=O)O
parameter.measured: IC50 (nM)
Give bare numbers, in nM.

Some solved cases for reference:
XDAXDHAAFQXFXQ (not fully specified; N-terminal Ac; PL3 at 1, B5 at 4, S8 at 11 (stapled 1-4 and 4-11 by olefin metathesis); 3FF at 12; BztA at 13; C-terminal NH2, Stapled peptide; also called Ac-PL3-Asp-Ala-B5-Asp-His-Ala-Ala-Phe-Gln-S8-3FF-BztA-Gln-NH2) [I-399] = 2500
Ac-[αAllylPro]DV[B5(23)]DEAAFQ[S8]F[Bta]Q-NH2 (staple 1-4, 4-11, Stapled peptide; also called Ac-PL3-Asp-Val-B5-Asp-Glu-Ala-Ala-Phe-Gln-S8-Phe-BztA-Gln-NH2) [I-410] = 50
Ac-[αAllylPro]DA[B5(9)]DHAAFV[S8][Phe(3-F)][Bta]Q-NH2 (staple 1-4, 4-11; also: earlier eluting HPLC isomer, E/Z not assigned, Stapled peptide; also called Ac-PL3-Asp-Ala-B5-Asp-His-Ala-Ala-Phe-Val-S8-3FF-BztA-Gln-NH2) [I-396] = 3430

Fill in IC50 for each of the 2 binders listed.
1. Ac-[αAllylPro]DA[B5(23)]DEAAFQ[S8]F[Bta]Q-NH2 (staple 1-4, 4-11, Stapled peptide; also called Ac-PL3-Asp-Ala-B5-Asp-Glu-Ala-Ala-Phe-Gln-S8-Phe-BztA-Gln-NH2) [I-406]
2. Ac-[αAllylPro]DA[B5(9)]DEAA[23FF]V[S8]F[Bta]Q-NH2 (staple 1-4, 4-11; also: later eluting HPLC isomer, E/Z not assigned, Stapled peptide; also called Ac-PL3-Asp-Ala-B5-Asp-Glu-Ala-Ala-23FF-Val-S8-Phe-BztA-Gln-NH2) [I-391]

94
1910
